For Carbonic anhydrase 12 (Homo sapiens, UniProt O43570), measured pKi is reported for the entries below.
One number for each entry, as −log10 of the molar value.

Recorded results for 3 compounds are shown here.
>  <smiles notation>
COC(=O)[C@H]1O[C@@H](S(=O)(=O)NCc2ccc(S(N)(=O)=O)cc2)[C@H](OC(C)=O)[C@@H](OC(C)=O)[C@H]1OC(C)=O

>  <quantitative readout>
8.01

$$$$
>  <smiles notation>
CC(=O)OC[C@H]1O[C@@H](SNCCc2ccc(S(N)(=O)=O)cc2)[C@H](OC(C)=O)[C@@H](OC(C)=O)[C@H]1OC(C)=O

>  <quantitative readout>
7.78

$$$$
>  <smiles notation>
CC(=O)OC[C@H]1O[C@@H](S(=O)(=O)NCCc2ccc(S(N)(=O)=O)cc2)[C@H](OC(C)=O)[C@@H](OC(C)=O)[C@H]1OC(C)=O

>  <quantitative readout>
8.03

$$$$

Dear colleague, could you send me pKi for each of the items below? Thanks.
1. CC(=O)OC[C@H]1O[C@@H](O[C@H]2[C@H](OC(C)=O)[C@@H](OC(C)=O)[C@H](S(=O)(=O)NCCc3ccc(S(N)(=O)=O)cc3)O[C@@H]2COC(C)=O)[C@H](OC(C)=O)[C@@H](OC(C)=O)[C@H]1OC(C)=O
2. CC(=O)OC[C@H]1O[C@@H](SNCc2ccc(S(N)(=O)=O)cc2)[C@H](OC(C)=O)[C@@H](OC(C)=O)[C@@H]1O[C@H]1O[C@H](COC(C)=O)[C@@H](OC(C)=O)[C@H](OC(C)=O)[C@H]1OC(C)=O

8.02
8.07

----------
Test: Permeability by PAMPA
Format: ADME
Conditions: read-out: permeability
Provide the reported Papp of each item.

Recorded results for 2 compounds are shown here.
>  <compound>
CC(=O)Nc1nnc(S(N)(=O)=O)s1 [ACETAZOLAMIDE]

>  <result>
< 0.15 ×10⁻⁶ cm/s

$$$$
>  <compound>
CC(=O)OC[C@H]1O[C@@H](S(=O)(=O)NCc2ccc(S(N)(=O)=O)cc2)[C@H](OC(C)=O)[C@@H](OC(C)=O)[C@@H]1OC(C)=O

>  <result>
< 0.05 ×10⁻⁶ cm/s

$$$$

Attention now turns to another entry.
// field: Papp; key: NS(=O)(=O)c1ccc(CNS(=O)(=O)[C@@H]2O[C@H](CO)[C@@H](O)[C@H](O)[C@H]2O)cc1 ; value = < 0.05 ×10⁻⁶ cm/s

----------
For Carbonic anhydrase 2 (Homo sapiens, UniProt P00918), measured Ki is reported for the entries below.
One number for each entry, in nM.

>  <smiles notation>
NS(=O)(=O)c1ccc(CCNS(=O)(=O)[C@@H]2O[C@H](C(=O)O)[C@H](O)[C@H](O)[C@H]2O)cc1

>  <Ki, nM>
4.7

$$$$

Dear colleague, could you send me Ki for each of the items below? Thanks.
1. NS(=O)(=O)c1ccc(CCNS(=O)(=O)[C@@H]2O[C@H](CO)[C@@H](O[C@@H]3O[C@H](CO)[C@H](O)[C@H](O)[C@H]3O)[C@H](O)[C@H]2O)cc1
2. NS(=O)(=O)c1ccc(CCNS(=O)(=O)[C@@H]2O[C@H](CO)[C@@H](O)[C@H](O)[C@H]2O)cc1
3. CC(=O)OC[C@H]1O[C@@H](SNCCc2ccc(S(N)(=O)=O)cc2)[C@H](OC(C)=O)[C@@H](OC(C)=O)[C@H]1OC(C)=O

[4.6, 7.8, 13.3]
